- System Under Test: human MOPr (Homo sapiens)
- Sequence (P35372 whole entry): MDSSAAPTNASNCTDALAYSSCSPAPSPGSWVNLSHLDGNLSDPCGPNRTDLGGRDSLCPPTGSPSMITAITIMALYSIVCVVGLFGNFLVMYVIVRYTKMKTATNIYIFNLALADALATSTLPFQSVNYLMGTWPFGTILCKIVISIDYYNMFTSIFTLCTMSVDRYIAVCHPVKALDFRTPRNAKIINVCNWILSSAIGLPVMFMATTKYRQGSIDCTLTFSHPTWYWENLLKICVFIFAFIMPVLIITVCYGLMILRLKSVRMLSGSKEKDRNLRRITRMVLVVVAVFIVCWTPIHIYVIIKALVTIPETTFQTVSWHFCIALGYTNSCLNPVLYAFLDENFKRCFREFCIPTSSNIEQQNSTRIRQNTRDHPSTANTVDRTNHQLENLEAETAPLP
- Experimental Details: cell-based
- Type: cell-based
- Set-up: expressed in transfected cells; HEK293-Glo20F cells (cAMP)
- Experimental Setup: Table 3a; HEK293-Glo20F-hMOPr cells; read-out: MOPr (cAMP) EC50
Residues, ends and D or L forms follow the SMILES beside them.
Measurement Name: pEC50
Scale for pEC50: -log10 of concentration given in mol/L; no unit attached.

Cc1cc(O)cc(C)c1C[C@H](N)C(=O)N[C@@H](CCCNC(=N)N)C(=O)N[C@@H](Cc1ccccc1)C(N)=O [KGFF06, H-Dmt-Arg-Phe-NH2] (HELM PEPTIDE1{[Cc1cc(O)cc(C)c1C[C@H](N)C(=O)[*:2]].R.F.[am]}$$$$V2.0) :: 5.64

Next molecule, please.
Determine its reported pEC50: Cc1cc(O)cc(C)c1C[C@H](N)C(=O)N[C@H](CCCNC(=N)N)C(=O)N[C@H]1Cc2ccccc2CN(CC(=O)N[C@@H](CCCNC(=N)N)C(=O)N[C@@H](Cc2ccccc2)C(=O)O)C1=O
8.82
